# credit: paper PMC7376644

Some compounds, each annotated with its measured CL/F.
Assay: PZQ-ketoconazole DDI pharmacokinetic study in healthy volunteers
Assay type: in vivo, human
Settings: male, human, plasma, oral, 20 mg/kg, 20 mg/kg PZQ plus 200 mg ketoconazole, n = 9; read-out: Clearance/F, treatment mean (SD) (converted)
Just the number please, in mL/min, no unit attached.

[[record]]
smiles_representation = "O=C(C1CCCCC1)N1CC(=O)N2CCc3ccccc3[C@H]2C1"
uom = "mL/min"
observed_measurement = 3530


Could you now consider this next compound?
Ask: Find the recorded CL/F belonging to O=C(C1CCCCC1)N1CC(=O)N2CCc3ccccc3[C@@H]2C1 and report it.
Reply: 19100

###

Assay: PZQ-ketoconazole DDI pharmacokinetic study in healthy volunteers
Assay type: in vivo, human
Conditions: male, human, plasma, po, 20 mg/kg, single oral 20 mg/kg PZQ alone, n = 9; read-out: V d/F, reference geo mean
Measurement label: Vd/F (L)
Just the number please, in L, no unit attached.

[[record]]
compound = "O=C(C1CCCCC1)N1CC(=O)N2CCc3ccccc3[C@@H]2C1 [R‐PZQ, R‐Praziquantel]"
observed_measurement = 4050


Could you now consider this next compound?
Ask: Find the recorded Vd/F belonging to O=C(C1CCCCC1)N1CC(=O)N2CCc3ccccc3[C@H]2C1 [S‐PZQ, S‐Praziquantel] and report it.
Reply: 1090

###

Assay: Intrinsic clearance, substrate depletion approach
Format: in vitro ADME, human
Conditions: human, human liver microsomes, pH 7.4; HLM, 1 µmol/L substrate
Measurement label: half-life at 1 µmol/L
Be sure to follow the number with its unit.

[[record]]
smiles_representation = "O=C(C1CCCCC1)N1CC(=O)N2CCc3ccccc3[C@@H]2C1"
measurement_label = "half-life at 1 µmol/L"
observed_measurement = "11.5 min"


Could you now consider this next molecule?
Ask: Find the recorded half-life at 1 µmol/L belonging to O=C(C1CCCCC1)N1CC(=O)N2CCc3ccccc3[C@H]2C1 and report it.
Reply: 29.5 min

###

Some molecules, each annotated with its measured AUC.
Experiment: PZQ-ketoconazole DDI pharmacokinetic study in healthy volunteers
Type: in vivo, human
Conditions: male, human, plasma, oral, 20 mg/kg; read-out: AUC from the in vivo pharmacokinetic study
Just the number please, in ng·h/mL, no unit attached.

[[record]]
smiles_representation = "O=C(C1CCCCC1)N1CC(=O)N2CCc3ccccc3[C@H]2C1"
observed_measurement = 3300


Could you now consider this next molecule?
Ask: Find the recorded AUC belonging to O=C(C1CCCCC1)N1CC(=O)N2CCc3ccccc3[C@@H]2C1 and report it.
Reply: 2400

###

Test: PZQ-ketoconazole DDI pharmacokinetic study in healthy volunteers
Assay type: in vivo, human
Details: male, human, plasma, po, 20 mg/kg, single oral 20 mg/kg PZQ alone, n = 9; read-out: AUCinf, reference mean (SD)
Some molecules, each annotated with its measured AUC(0-inf).
Just the number please, in ng·h/mL, no unit attached.

[[record]]
molecule = "O=C(C1CCCCC1)N1CC(=O)N2CCc3ccccc3[C@@H]2C1 [R‐PZQ, R‐Praziquantel]"
measurement_label = "AUC(0-inf)"
observed_measurement = 1340


Could you now consider this next molecule?
Ask: Find the recorded AUC(0-inf) belonging to O=C(C1CCCCC1)N1CC(=O)N2CCc3ccccc3[C@H]2C1 [S‐PZQ, S‐Praziquantel] and report it.
Reply: 3850

###

Some compounds, each annotated with its measured CL/F.
Assay: PZQ-ketoconazole DDI pharmacokinetic study in healthy volunteers
Assay type: in vivo, human
Conditions: male, human, plasma, po, 20 mg/kg, single oral 20 mg/kg PZQ alone, n = 9; read-out: Clearance/F, reference geo mean (converted)
Just the number please, in mL/min, no unit attached.

[[record]]
compound = "O=C(C1CCCCC1)N1CC(=O)N2CCc3ccccc3[C@H]2C1 [S‐PZQ, S‐Praziquantel]"
uom = "mL/min"
observed_measurement = 5480


Ask: Find the recorded CL/F belonging to O=C(C1CCCCC1)N1CC(=O)N2CCc3ccccc3[C@@H]2C1 [R‐PZQ, R‐Praziquantel] and report it.
Reply: 14600

###

Experiment: PZQ-ketoconazole DDI pharmacokinetic study in healthy volunteers
Assay type: in vivo, human
Conditions: male, human, plasma, oral, 20 mg/kg, 20 mg/kg PZQ plus 200 mg ketoconazole, n = 9; read-out: AUCinf, treatment geo mean
Some molecules, each annotated with its measured AUC(0-inf).
Just the number please, in ng·h/mL, no unit attached.

[[record]]
smiles_representation = "O=C(C1CCCCC1)N1CC(=O)N2CCc3ccccc3[C@H]2C1"
measurement_label = "AUC(0-inf)"
observed_measurement = 5960


Could you now consider this next molecule?
Ask: Find the recorded AUC(0-inf) belonging to O=C(C1CCCCC1)N1CC(=O)N2CCc3ccccc3[C@@H]2C1 and report it.
Reply: 1290
